Test system: BJ
test: BJ-TERT-LT-ST fibroblast viability loss – cell-based, RAS-independent, luminescence, dose response (AID 1935);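 further: BJ fibroblasts immortalized with TERT plus LT and ST oncogenes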
Format: functional
setup conditions: Homo sapiens
Activity calls are given as the source filed them.
readout name: EC50

molecule=CCOC(=O)N1CCC(NC(=O)c2ccc3c(c2)N=C(C)c2c(C)ccc(C)c2S3)CC1 readout_name=EC50 result="1.43 µM (active)"
molecule="COC(=O)C1CN(C#N)N(c2ccc(Cl)cc2)C12c1ccccc1-c1ccccc12 (centres undefined)" readout_name=EC50 result="2.49 µM (inconclusive)"
molecule=Cn1c(N/N=C/c2cc3ccccc3nc2Cl)nc2ccccc21 readout_name=EC50 result="> 150 µM (not active)"
molecule=O=C(O)c1ccc(CN2C(=O)c3cccc4c([N+](=O)[O-])ccc(c34)C2=O)cc1 readout_name=EC50 result="10.6 µM (inconclusive)"

---

Readings of EC50 for the listed molecules
tgt: Oxysterols receptor LXR-beta (Homo sapiens)
Sequence (P55055 whole entry, the tested form may be a part): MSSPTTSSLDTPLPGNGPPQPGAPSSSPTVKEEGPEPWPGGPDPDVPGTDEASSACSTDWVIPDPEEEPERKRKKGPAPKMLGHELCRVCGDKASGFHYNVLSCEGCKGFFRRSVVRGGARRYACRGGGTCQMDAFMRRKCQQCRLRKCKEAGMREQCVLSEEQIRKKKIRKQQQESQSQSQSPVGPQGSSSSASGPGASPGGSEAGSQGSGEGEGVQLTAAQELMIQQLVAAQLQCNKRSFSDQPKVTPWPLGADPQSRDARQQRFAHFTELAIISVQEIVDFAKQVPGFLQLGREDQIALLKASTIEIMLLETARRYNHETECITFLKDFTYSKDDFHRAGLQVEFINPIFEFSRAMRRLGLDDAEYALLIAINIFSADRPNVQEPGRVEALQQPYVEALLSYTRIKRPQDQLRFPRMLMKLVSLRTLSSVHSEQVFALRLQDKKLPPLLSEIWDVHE
test: LXR agonists, Gal4 luciferase reporter, dose response, counter-screen for ssDAF-12 agonist project, cell-based, luminescence, HEK293, S. stercoralis campaign (AID 720737)
Assay type: functional
setup conditions: read-out: IC50 (the source's name)
Active and inactive are the calls of the source.
readout name: EC50

molecule=CC(/C=N/NC(=O)Cn1cnc2ccccc21)=C\c1ccccc1 result="> 67.5 µM (inactive)"
molecule=COC(=O)[C@@H](Cc1c[nH]c2ccccc12)NC(=O)c1ccc2c(c1)OCO2 result="> 67.6 µM (inactive)"
molecule=CCCCN(C(=O)CSc1cc(C)c2ccc(OC)cc2n1)c1c(N)n(Cc2ccccc2)c(=O)[nH]c1=O result="> 67.5 µM (inactive)"
molecule="CN1C(=O)C(CC(=O)Nc2ccc(F)cc2)N(Cc2cccs2)C1=S (stereo not given)" result="> 67.5 µM (inactive)"
molecule=Cc1cccc(OCCNC(=O)c2cncc(Br)c2)c1 result="> 67.5 µM (inactive)"

---

System: H4
test: Luminescence Cell-Based Dose Response HTS to Identify Activators of 5'UTR Stem-Loop Driven Prion Protein mRNA Translation in H4 Neuroglioblastoma Cells. [Related pubchem assays: 1829 (Project Summary), 1814 (Primary HTS)]
Type: functional
setup conditions: Homo sapiens
The source made the active and inactive calls.
readout name: EC50

compound=CN(CCOC(=O)CN1C(=O)c2ccccc2C1=O)C1=NS(=O)(=O)c2ccccc21 result="> 120 µM (not active)"
compound=COc1ccc(/C=C2\SC(=O)N(CCNC(=O)C3CCN(S(=O)(=O)c4cccs4)CC3)C2=O)cc1 result="19.1 µM (active)"
compound="O=C(c1cnn2c1NC(c1ccco1)CC2C(F)(F)F)N1CCN(c2cccc(Cl)c2)CC1 (stereo not given)" result="> 120 µM (not active)"
compound=Cc1c(C(=O)/C=C/c2cccs2)oc2ccc(F)cc12 result="34.1 µM (inconclusive)"
compound=CCn1cc(Br)c(-c2nc3ccccc3c(=O)n2N)n1 result="> 120 µM (not active)"

---

Cytochrome P450 2C9 (Homo sapiens, UniProt P11712) measurements of AC50, listed per entry.
Sequence (P11712 whole entry): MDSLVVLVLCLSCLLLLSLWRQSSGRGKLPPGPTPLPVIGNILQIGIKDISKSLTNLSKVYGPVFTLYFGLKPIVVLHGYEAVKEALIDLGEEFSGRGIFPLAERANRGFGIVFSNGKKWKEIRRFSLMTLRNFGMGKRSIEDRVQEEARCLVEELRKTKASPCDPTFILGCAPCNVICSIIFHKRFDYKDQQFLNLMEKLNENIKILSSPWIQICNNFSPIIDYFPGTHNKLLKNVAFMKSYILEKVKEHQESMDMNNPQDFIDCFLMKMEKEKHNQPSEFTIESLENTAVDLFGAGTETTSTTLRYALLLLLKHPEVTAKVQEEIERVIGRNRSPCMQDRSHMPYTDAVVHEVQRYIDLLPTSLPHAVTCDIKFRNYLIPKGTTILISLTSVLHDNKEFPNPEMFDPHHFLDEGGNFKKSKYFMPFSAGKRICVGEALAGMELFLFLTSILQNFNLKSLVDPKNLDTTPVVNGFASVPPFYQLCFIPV
readout name: AC50

compound="CCC(=O)Nc1ccc(C(=O)CSc2nnc(-c3ccc(O)cc3)n2CC2CCCO2)cc1OC (centres undefined)" readout_name=AC50 result="15.8 µM (inconclusive)"
compound=COc1cc(CN2CCN(C(=O)COc3ccccc3)CC2)cc(OC)c1OC readout_name=AC50 result="22.4 µM (inconclusive)"
compound=O=c1c2cc(Br)ccc2[nH]c(=S)n1Cc1cccnc1 readout_name=AC50 result="12.6 µM (inconclusive)"
compound=COC(=O)[C@@]1(Cc2ccc(OC)cc2)[C@@H]2[C@@H](CC(=O)[C@H]2CC(=O)C(=O)N(C)C)CN1C(=O)c1ccccc1 readout_name=AC50 result="39.8 µM (inconclusive)"
compound=Cc1ccc(C(=O)N/C(=C/C=C/c2ccccc2)C(=O)NCc2ccco2)cc1 readout_name=AC50 result="10 µM (inconclusive)"
compound="CCN1C(=O)C(CC(=O)Nc2ccc(OC)cc2)N(Cc2cccnc2)C1=S (centres undefined)" readout_name=AC50 result="10 µM (inconclusive)"
compound=Cc1cc2nc(SCCOC(=O)Nc3ccc(Cl)cc3)nc(C)c2cc1C readout_name=AC50 result="2.82 µM (inconclusive)"
compound=COc1[nH]c2ccc(F)cc2c1C(=O)OCC1CCN(CCNS(C)(=O)=O)CC1.NS(=O)(=O)O readout_name=AC50 result="39.8 µM (inconclusive)"
compound=Fc1ccc(CN(C2=NCCN2)c2c(Cl)cccc2Cl)cc1 readout_name=AC50 result="39.8 µM (inconclusive)"
compound=O=C(COc1ccc([N+](=O)[O-])cc1)N[N-][C+]1CCCC1 readout_name=AC50 result="0.0251 µM (inconclusive)"
compound=COc1ncc2nc(-c3ccc(Cl)cc3)c(=O)n(Cc3cccs3)c2n1 readout_name=AC50 result="15.8 µM (inconclusive)"
compound=Cc1ccc(CNc2nc(N)c([N+](=O)[O-])c(Nc3ccc(F)cc3)n2)cc1 readout_name=AC50 result="3.55 µM (inconclusive)"
compound=Cc1ccc(-n2nnnc2Sc2nc([N+](=O)[O-])nn2C)cc1C readout_name=AC50 result="1.58 µM (inconclusive)"
compound=O=C(CSc1nnc(-c2cccc(S(=O)(=O)N3CCOCC3)c2)n1C1CCCCCC1)NCc1ccccc1 readout_name=AC50 result="14.1 µM (inconclusive)"
compound=Cc1cc(/C=C2\SC(=S)NC2=O)c(C)n1C readout_name=AC50 result="1.26 µM (inconclusive)"
compound=c1ccc(-c2nc3ccccc3o2)nc1 readout_name=AC50 result="39.8 µM (inconclusive)"
compound=Sc1nnc(CSCc2ccccc2Cl)n1-c1ccccc1 readout_name=AC50 result="5.01 µM (inconclusive)"
compound=O=C(CSc1ccccc1)Nc1ccc(N2CCN(c3ccccc3)CC2)c(F)c1 readout_name=AC50 result="0.447 µM (inconclusive)"
compound=O=C(c1ccncc1)N1CCC[C@@]2(CCN(c3ccccn3)C2)C1 readout_name=AC50 result="20 µM (inconclusive)"
